Values compiled from patent US8669271B2.

# Study System: human GPR119 (Homo sapiens)
# Construct: expression vector for human GPR119 cDNA (Acc. No. NP_848566)
# Assay Notes: AlphaScreen cAMP assay in Min-6/hGPR119 cells (activation of GPR119, intracellular cAMP)
# Condition Label: MIN6 cells stably transfected with human GPR119; cAMP by AlphaScreen after 45 minutes incubation at room temperature
Would you kindly list pEC50 for each of these compounds?
The read-out pEC50 is expressed as -log10 of concentration in moles per litre.

Prompt: Answer with pEC50 of CC(C)(C)OC(=O)N1CCC(C2Cc3cc(N4CCN(S(C)(=O)=O)CC4)ncc3O2)CC1 (stereo not shown) measured for human GPR119 (Homo sapiens).
Completion: 7.72

Prompt: Answer with pEC50 of CC(C)OC(=O)N1CCC(C2Cc3cc(-c4ccc(CC(=O)NCc5cocn5)cc4)ccc3O2)CC1 (stereo not shown) measured for human GPR119 (Homo sapiens).
Completion: 6.68

Prompt: Answer with pEC50 of CC(C)OC(=O)N1CCC(C2Cc3cc(-c4ccc(CC(=O)N5CCC(C)(O)C5)cc4)ccc3O2)CC1 (stereo not shown) measured for human GPR119 (Homo sapiens).
Completion: 6.96

Prompt: Answer with pEC50 of CC(C)OC(=O)N1CCC(C2Cc3cc(-c4ccc(C#N)cc4)ccc3O2)CC1 (stereo not shown) measured for human GPR119 (Homo sapiens).
Completion: 6.70

---

Would you kindly list log10 EC50 for each of these compounds?
# Study System: human GPR119 (Homo sapiens)
# Construct: expression vector for human GPR119 cDNA (Acc. No. NP_848566); expressed in transfected cells
# Assay Notes: AlphaScreen cAMP assay in Min-6/hGPR119 cells (activation of GPR119, intracellular cAMP)
# Type: cell-based
# Condition Label: MIN6 cells stably transfected with human GPR119; cAMP by AlphaScreen after 45 minutes incubation at room temperature
Please be aware that the numbers have been log10-transformed from EC50 in µM.

Prompt: Name the recorded log10 EC50 of the compound listed here: COc1cc(-c2ccc3c(c2)CC(C2CCN(C(=O)OC(C)C)CC2)O3)ccc1C#N (centres unmarked)
Completion: -0.07

Prompt: Name the recorded log10 EC50 of the compound listed here: CC(C)OC(=O)N1CCC(C2Cc3cc(-c4ccc(C#N)s4)ccc3O2)CC1 (centres unmarked)
Completion: -1.21

Prompt: Name the recorded log10 EC50 of the compound listed here: CC1(OC(=O)N2CCC(C3Cc4cc(-c5ccc(CS(C)(=O)=O)cc5)ncc4O3)CC2)CC1 (centres unmarked)
Completion: -1.29

Prompt: Name the recorded log10 EC50 of the compound listed here: CC(C)OC(=O)N1CCC(C2Cc3cc(-c4ccc(S(C)(=O)=O)cn4)ccc3O2)CC1 (centres unmarked)
Completion: -1.41

Prompt: Name the recorded log10 EC50 of the compound listed here: Cc1cc([S+](C)[O-])ccc1-c1ccc2c(c1)CC(C1CCN(C(=O)OC(C)C)CC1)O2 (centres unmarked)
Completion: -0.52

Prompt: Name the recorded log10 EC50 of the compound listed here: CC(=O)Nc1ccc(-c2ccc3c(c2)CC(C2CCN(C(=O)OC(C)C)CC2)O3)nn1 (centres unmarked)
Completion: -0.32

Prompt: Name the recorded log10 EC50 of the compound listed here: CC(C)(C)OC(=O)N1CCC(C2Cc3cc(-c4ccc(CS(C)(=O)=O)cn4)ccc3O2)CC1 (centres unmarked)
Completion: -1.28

Prompt: Name the recorded log10 EC50 of the compound listed here: CC(C)(C)OC(=O)N1CCC(C2Cc3cc(-c4ccc(C#N)cc4)ncc3O2)CC1 (centres unmarked)
Completion: -1.82

Prompt: Name the recorded log10 EC50 of the compound listed here: CC(C)OC(=O)N1CCC(C2Cc3cc(-c4ccc(C(=O)NCc5ccccn5)cc4)ccc3O2)CC1 (centres unmarked)
Completion: -1.47

Prompt: Name the recorded log10 EC50 of the compound listed here: CC(C)OC(=O)N1CCC(C2Cc3cc(-c4ccc(CC(=O)NCc5ccccn5)cc4)ccc3O2)CC1 (centres unmarked)
Completion: -0.63

Prompt: Name the recorded log10 EC50 of the compound listed here: CNc1ncc(-c2ccc3c(c2)CC(C2CCN(C(=O)OC(C)C)CC2)O3)cn1 (centres unmarked)
Completion: -0.21

Prompt: Name the recorded log10 EC50 of the compound listed here: CC(C)OC(=O)N1CCC(C2Cc3cc(-c4ccc(CC(=O)NCC5CCCO5)cc4)ccc3O2)CC1 (centres unmarked)
Completion: -1.01

Prompt: Name the recorded log10 EC50 of the compound listed here: CC(C)OC(=O)N1CCC(C2Cc3cc(-c4ccc(CC(=O)N(C)C5CCCOC5)cc4)ccc3O2)CC1 (centres unmarked)
Completion: -1.20

Prompt: Name the recorded log10 EC50 of the compound listed here: CC(C)(C)OC(=O)N1CCC(C2Cc3cc(-c4ccc(C#N)cc4F)ncc3O2)CC1 (centres unmarked)
Completion: -1.92

Prompt: Name the recorded log10 EC50 of the compound listed here: COc1cc(-c2ccc3c(c2)CC(C2CCN(C(=O)OC(C)C)CC2)O3)ccc1NC(C)=O (centres unmarked)
Completion: -0.93

Prompt: Name the recorded log10 EC50 of the compound listed here: CC(C)OC(=O)N1CCC(C2Cc3cc(-c4cncnc4)ccc3O2)CC1 (centres unmarked)
Completion: -0.73

Prompt: Name the recorded log10 EC50 of the compound listed here: `CC(C)(C)OC(=O)N1CCC([C@@H]2Cc3nc(-c4ccc(S(C)(=O)=O)cc4)ncc3O2)CC1`
Completion: -1.57

Prompt: Name the recorded log10 EC50 of the compound listed here: CC(C)(C)OC(=O)N1CCC(C2Cc3nc(-c4ccc(S(C)(=O)=O)cc4)ncc3O2)CC1 (centres unmarked)
Completion: -1.35

Prompt: Name the recorded log10 EC50 of the compound listed here: CC(C)OC(=O)N1CCC(C2Cc3cc(-c4ccc(S(N)(=O)=O)cc4)ccc3O2)CC1 (centres unmarked)
Completion: -1.28

Prompt: Name the recorded log10 EC50 of the compound listed here: CC(C)(C)OC(=O)N1CCC(C2Cc3cc(-c4ccc(CC#N)cc4)ncc3O2)CC1 (centres unmarked)
Completion: -1.41

Prompt: Name the recorded log10 EC50 of the compound listed here: CC(C)OC(=O)N1CCC(C2Cc3cc(-c4ccc(S(C)(=O)=O)c(F)c4)ccc3O2)CC1 (centres unmarked)
Completion: -1.82

Prompt: Name the recorded log10 EC50 of the compound listed here: CC(C)(C)OC(=O)N1CCC(C2Cc3cc(-c4ccc(C(N)=O)cn4)ccc3O2)CC1 (centres unmarked)
Completion: -0.80

Prompt: Name the recorded log10 EC50 of the compound listed here: CS(=O)(=O)c1ccc(-c2cc3c(cn2)OC(C2CCN(C(=O)OC4CCC4)CC2)C3)cc1 (centres unmarked)
Completion: -1.77

Prompt: Name the recorded log10 EC50 of the compound listed here: CC(C)OC(=O)N1CCC(C2Cc3cc(-c4ccc(NS(C)(=O)=O)cc4)ccc3O2)CC1 (centres unmarked)
Completion: -1.34

Prompt: Name the recorded log10 EC50 of the compound listed here: Cc1nccn1-c1cc2c(cn1)OC(C1CCN(C(=O)OC(C)(C)C)CC1)C2 (centres unmarked)
Completion: -0.15

Prompt: Name the recorded log10 EC50 of the compound listed here: CC(C)(C)OC(=O)N1CCC(C2Cc3cc(-c4ccnnc4)ncc3O2)CC1 (centres unmarked)
Completion: -0.58

Prompt: Name the recorded log10 EC50 of the compound listed here: CC(C)OC(=O)N1CCC(C2Cc3cc(-c4ccc(S(C)(=O)=O)cc4)ccc3O2)CC1 (centres unmarked)
Completion: -1.49

Prompt: Name the recorded log10 EC50 of the compound listed here: CS(=O)(=O)Cc1ccc(-c2cc3c(cn2)OC(C2CCN(C(=O)OC4CCC4)CC2)C3)cc1 (centres unmarked)
Completion: -1.51

Prompt: Name the recorded log10 EC50 of the compound listed here: COC1CN(C(=O)c2ccc(-c3ccc4c(c3)CC(C3CCN(C(=O)OC(C)C)CC3)O4)cc2)C1 (centres unmarked)
Completion: -1.42

Prompt: Name the recorded log10 EC50 of the compound listed here: CC(C)OC(=O)N1CCC(C2Cc3cc(-c4ccc(C(=O)NCC5COCCO5)cc4)ccc3O2)CC1 (centres unmarked)
Completion: -1.29

Prompt: Name the recorded log10 EC50 of the compound listed here: CC(=O)Nc1ncc(-c2ccc3c(c2)CC(C2CCN(C(=O)OC(C)C)CC2)O3)s1 (centres unmarked)
Completion: -0.70

Prompt: Name the recorded log10 EC50 of the compound listed here: CC(C)S(=O)(=O)c1ccc(-c2cc3c(cn2)OC(C2CCN(C(=O)OC(C)(C)C)CC2)C3)cc1 (centres unmarked)
Completion: -1.59

---

# Study System: human GPR119 (Homo sapiens, UniProt Q8TDV5)
# Construct: expression vector for human GPR119 cDNA (Acc. No. NP_848566)
# Sequence (Q8TDV5 whole entry): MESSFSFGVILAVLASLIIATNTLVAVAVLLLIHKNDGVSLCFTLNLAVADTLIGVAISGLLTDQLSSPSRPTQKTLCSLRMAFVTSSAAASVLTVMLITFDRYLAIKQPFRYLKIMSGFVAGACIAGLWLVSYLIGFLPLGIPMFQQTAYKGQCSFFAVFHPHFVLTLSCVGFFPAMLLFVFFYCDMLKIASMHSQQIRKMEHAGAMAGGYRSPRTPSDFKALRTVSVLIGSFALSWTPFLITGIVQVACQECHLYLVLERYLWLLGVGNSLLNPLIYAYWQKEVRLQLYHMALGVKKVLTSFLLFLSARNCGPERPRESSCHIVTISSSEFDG
# Assay Notes: AlphaScreen cAMP assay in Min-6/hGPR119 cells (activation of GPR119, intracellular cAMP)
# Condition Label: MIN6 cells stably transfected with human GPR119; cAMP by AlphaScreen after 45 minutes incubation at room temperature
Would you kindly list EC50 for each of these compounds?
Write the number in nM without appending the unit.

Prompt: Name the recorded EC50 of the compound listed here: CC(C)(C)OC(=O)N1CCC(C2Cc3cc(-c4ccc(C(N)=O)cc4F)ncc3O2)CC1 (stereo not shown)
Completion: 88

Prompt: Name the recorded EC50 of the compound listed here: `CC1(OC(=O)N2CCC([C@]3(C)Cc4cc(C5=CCN(S(C)(=O)=O)CC5)ncc4O3)CC2)CC1`
Completion: 13

Prompt: Name the recorded EC50 of the compound listed here: CC(C)OC(=O)N1CCC(C2Cc3cc(-c4ccc(S(C)(=O)=O)cc4)ncc3O2)CC1 (stereo not shown)
Completion: 18

Prompt: Name the recorded EC50 of the compound listed here: CC(C)OC(=O)N1CCC(C2Cc3cc(-c4cccc(C#N)c4)ccc3O2)CC1 (stereo not shown)
Completion: 186

Prompt: Name the recorded EC50 of the compound listed here: Cn1cc(-c2cc3c(cn2)OC(C2CCN(C(=O)OC(C)(C)C)CC2)C3)ccc1=O (stereo not shown)
Completion: 133

Prompt: Name the recorded EC50 of the compound listed here: CC(C)OC(=O)N1CCC(C2Cc3cc(-c4ccc(CC(=O)NCC(C)(C)CO)cc4)ccc3O2)CC1 (stereo not shown)
Completion: 153

Prompt: Name the recorded EC50 of the compound listed here: CC(C)(C)OC(=O)N1CCC(C2Cc3cc(-c4ccc(NS(C)(=O)=O)cc4)ncc3O2)CC1 (stereo not shown)
Completion: 31

Prompt: Name the recorded EC50 of the compound listed here: CNC(=O)c1ccc(-c2ccc3c(c2)CC(C2CCN(C(=O)OC(C)(C)C)CC2)O3)nc1 (stereo not shown)
Completion: 64

Prompt: Name the recorded EC50 of the compound listed here: Cc1c(-c2ccc3c(c2)CC(C2CCN(C(=O)OC(C)C)CC2)O3)cnn1C (stereo not shown)
Completion: 1840

Prompt: Name the recorded EC50 of the compound listed here: CC(C)OC(=O)N1CCC(C2Cc3cc(-c4cnc(C#N)nc4)ccc3O2)CC1 (stereo not shown)
Completion: 320

Prompt: Name the recorded EC50 of the compound listed here: Cc1noc(C)c1-c1ccc2c(c1)CC(C1CCN(C(=O)OC(C)C)CC1)O2 (stereo not shown)
Completion: 1710

Prompt: Name the recorded EC50 of the compound listed here: CC(=O)Nc1ccc(-c2ccc3c(c2)CC(C2CCN(C(=O)OC(C)C)CC2)O3)cc1 (stereo not shown)
Completion: 89

Prompt: Name the recorded EC50 of the compound listed here: CC(C)OC(=O)N1CCC(C2Cc3cc(-c4ccc(C(=O)NCC5CCCO5)cc4)ccc3O2)CC1 (stereo not shown)
Completion: 17

Prompt: Name the recorded EC50 of the compound listed here: Cc1noc(C)c1-c1cc2c(cn1)OC(C1CCN(C(=O)OC(C)(C)C)CC1)C2 (stereo not shown)
Completion: 573

Prompt: Name the recorded EC50 of the compound listed here: CC(C)(C)OC(=O)N1CCC(C2(C)Cc3cc(C4CCN(S(C)(=O)=O)CC4)ncc3O2)CC1 (stereo not shown)
Completion: 53

Prompt: Name the recorded EC50 of the compound listed here: CC(C)(C)OC(=O)N1CCC(C2Cc3cc(-c4ccncc4)ncc3O2)CC1 (stereo not shown)
Completion: 34
